Consider the following variants; for each one, report its protein stability index.
B1: KCNK9 (parent)
chain: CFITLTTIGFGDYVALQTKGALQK

- Variants of: B1
- Test Method Notes: protein stability index of a GFP-peptide fusion (GPS, HEK-293T) (PSI 1-6); higher = more stable;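 also: lentivirally expressed fusions sorted by FACS into six bins by GFP to DsRed ratio, PSI derived from sequencing read proportions per bin multiplied by bin number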
- Condition Description: c terminus: a fixed tail appended
One number for each entry.

Below, 2 variants whose answers are already recorded.
Variant String	protein stability index
T6C	3.41
T6K	2.11

Now examine the next entry.
Name the recorded protein stability index for G9C .
2.83
